# test.target: DNA-PK phosphorylation at serine 2056 (Homo sapiens (Human), UniProt P78527)
# assay.notes: DNA-PK phosphorylation at serine 2056 (cellular), bleomycin-treated HCT116 cells, ELISA
# Format: cell-based
# measurement.conditions: cellular DNA-PK phosphorylation at serine 2056, HCT116; read-out: IC50 pDNA-PK
# Procedure: HCT116 cells were cultivated at 37° C. and 10% CO2 in MEM alpha medium with 10% of foetal calf serum and 2 mM glutamine. The cells were detached from the base of the culture vessels with the aid of trypsin/EDTA, centrifuged off in centrifuge tubes, taken up in fresh medium, and the cell density was determined. […] The development of the enzymatic reaction was carried out with the aid of a chemiluminescent reagent, the chemiluminescence was measured with the aid of a Mithras LB940. […]
This listing pairs compounds with measured IC50.

Before answering, review these 2 worked examples.
compound: Cc1nccnc1C(O)c1cc(-c2ncnc3cc(N4CCOCC4)ccc23)ccc1F (stereo not drawn)
readout.type: IC50
observed: 5 to 10 µM

compound: O=C1CCCN1c1nccnc1C(O)c1ccc(F)c(-c2ncnc3cc(N4CCOCC4)ccc23)c1 (stereo not drawn)
readout.type: IC50
observed: 10 to 30 µM

Q) Value lookup for IC50; key = OC(c1cc(-c2ncnc3cc(N4CCOCC4)ccc23)c(F)cc1Cl)c1nccn2ccnc12 (single isomer, unassigned) [Example 395]
A) 5 to 10 µM

Q) CNC(=O)C(c1ccc(F)c(-c2ncnc3cc(N4CCOCC4)ccc23)c1)c1ncccc1Cl (stereo not drawn) ?
A) 5 to 10 µM

Q) O=c1[nH]nc(C(O)c2ccc(F)c(-c3ncnc4cc(N5CCOCC5)ccc34)c2)c2sccc12 (stereo not drawn) ?
A) 0.5 to 5 µM

Q) OC(c1cc(-c2ncnc3cc(N4CCOCC4)ccc23)ccc1Cl)c1ncnc2occc12 (stereo not drawn) ?
A) 0.5 to 5 µM

====

# test.target: Kv11.1 (hERG) (Homo sapiens (Human), UniProt Q12809)
# Sequence (Q12809 whole entry): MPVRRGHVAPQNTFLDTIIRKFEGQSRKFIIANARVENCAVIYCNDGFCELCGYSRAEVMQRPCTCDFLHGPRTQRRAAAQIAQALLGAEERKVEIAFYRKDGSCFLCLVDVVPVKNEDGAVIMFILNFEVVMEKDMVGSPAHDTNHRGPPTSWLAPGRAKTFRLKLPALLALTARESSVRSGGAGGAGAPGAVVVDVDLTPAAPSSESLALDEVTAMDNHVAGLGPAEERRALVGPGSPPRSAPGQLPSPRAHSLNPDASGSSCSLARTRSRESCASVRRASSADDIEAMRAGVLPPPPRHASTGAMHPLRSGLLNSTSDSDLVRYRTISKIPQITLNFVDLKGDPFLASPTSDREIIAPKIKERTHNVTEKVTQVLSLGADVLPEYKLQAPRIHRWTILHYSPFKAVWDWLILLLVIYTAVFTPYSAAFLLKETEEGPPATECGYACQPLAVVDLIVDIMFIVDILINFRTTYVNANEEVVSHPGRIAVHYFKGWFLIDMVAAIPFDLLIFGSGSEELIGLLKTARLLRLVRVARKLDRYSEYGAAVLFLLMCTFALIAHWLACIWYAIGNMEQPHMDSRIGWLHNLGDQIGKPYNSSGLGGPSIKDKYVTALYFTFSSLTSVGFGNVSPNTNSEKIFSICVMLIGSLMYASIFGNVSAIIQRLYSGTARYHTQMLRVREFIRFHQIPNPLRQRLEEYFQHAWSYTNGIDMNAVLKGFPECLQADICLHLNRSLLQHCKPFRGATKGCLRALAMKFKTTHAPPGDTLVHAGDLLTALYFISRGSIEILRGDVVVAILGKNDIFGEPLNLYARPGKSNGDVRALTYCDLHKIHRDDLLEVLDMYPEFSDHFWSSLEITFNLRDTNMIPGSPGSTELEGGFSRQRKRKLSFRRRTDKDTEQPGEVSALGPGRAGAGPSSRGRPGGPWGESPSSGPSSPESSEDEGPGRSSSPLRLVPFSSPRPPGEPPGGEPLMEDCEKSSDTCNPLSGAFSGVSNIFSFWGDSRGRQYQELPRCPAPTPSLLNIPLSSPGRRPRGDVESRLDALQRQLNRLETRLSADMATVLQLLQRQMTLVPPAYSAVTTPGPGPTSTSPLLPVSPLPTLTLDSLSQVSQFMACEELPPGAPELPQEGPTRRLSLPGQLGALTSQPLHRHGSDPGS
# assay.notes: Kv11.1 (hERG) ion channel activity (patch clamp assay), HEK293 cells transfected with hERG gene
# measurement.conditions: Ki [Kv1.11 hERG], patch clamp, HEK293 transfected with hERG gene
pKi: −log10 of the molar value.
This listing pairs molecules with measured pKi.

molecule: OC(c1cnccn1)c1cc(-c2ncnc3cc(N4CCOCC4)ccc23)c(F)cc1Cl (centres unmarked) [Example 34]
pKi: 4.60 to 4.82
//
molecule: Cc1nccnc1C(O)c1ccc(F)c(-c2ncnc3cc(N4CCOCC4)ccc23)c1 (centres unmarked) [Example 78]
pKi: 4.60 to 4.82
//
molecule: COc1nnc(C(O)c2cc(-c3ncnc4cc(N5CCOCC5)ccc34)c(F)cc2Cl)cc1C (centres unmarked) [Example 110]
pKi: 4.82 to 5.00
//
molecule: OC(c1ccc2nccn2n1)c1cc(-c2ncnc3cc(N4CCOCC4)ccc23)c(F)cc1F (centres unmarked) [Example 51]
pKi: 4.60 to 4.82
//
molecule: OC(c1cccnn1)c1cc(-c2ncnc3cc(N4CCOCC4)ccc23)c(F)cc1F (centres unmarked) [Example 48]
pKi: 4.60 to 4.82
//
molecule: COc1cnc(C(O)c2ccc(F)c(-c3ncnc4cc(N5CCOCC5)ccc34)c2)cn1 (centres unmarked) [Example 60]
pKi: 4.60 to 4.82
//
molecule: OC(c1ccc(F)c(-c2ncnc3cc(N4CCOCC4)ccc23)c1)c1c(F)cncc1Cl (centres unmarked) [Example 77]
pKi: 4.82 to 5.00
//
molecule: CC(C)(C)Oc1nccnc1C(O)c1ccc(F)c(-c2ncnc3cc(N4CCOCC4)ccc23)c1 (centres unmarked) [Example 13]
pKi: 4.82 to 5.00

Q) Value lookup for pKi; key = C#CC(O)(c1ccc(OC)nn1)c1cc(-c2ncnc3cc(N4CCOCC4)ccc23)c(F)cc1Cl (centres unmarked) [Example 122]
A) 4.82 to 5.00

Q) OC(c1ccc2nccn2n1)c1cc(-c2ncnc3cc(N4CCOCC4)ccc23)c(F)cc1Cl (centres unmarked) [Example 56] ?
A) 4.82 to 5.00

Q) Cn1nc(C(O)c2cc(-c3ncnc4cc(N5CCOCC5)ccc34)c(F)cc2Cl)ccc1=O (centres unmarked) [Example 59] ?
A) 4.60 to 4.82
